Hi there, I'd appreciate the recorded viability, T/C for every entry that follows.
# Test system: CN0375-F725-PDC KRAS spheroid viability
# Assay protocol: Anticancer human tumor CN0375-F725-PDC patient-derived colon carcinoma cell line growth inhibition [KRAS2]
# Condition label: second compound 10 µM; first compound 10 µM; stronger effect = lower value; spheroids with HUVEC and MSC
Give bare numbers, in %.

Below, 2 compounds whose answers are already recorded.
{"Compound": "Cn1nccc1Nc1nccc(-c2cc3c(s2)C(C)(C)N(CCN2CCOCC2)C3=O)n1 + C=CC(=O)N1CCN(c2nc(=O)n(-c3c(C)ccnc3C(C)C)c3nc(-c4c(O)cccc4F)c(F)cc23)C(C)C1", "viability, T/C, %": 32.2}
{"Compound": "O=C(c1cc(Cc2n[nH]c(=O)c3ccccc23)ccc1F)N1CCN(C(=O)C2CC2)CC1 + COc1cc2nc(C)nc(NC(C)c3cc(N)cc(C(F)(F)F)c3)c2cc1OC1CCOC1", "viability, T/C, %": 98}

Your task in this section: give viability, T/C for each listed record.
1. CCNC(=O)CC1N=C(c2ccc(Cl)cc2)c2cc(OC)ccc2-n2c(C)nnc21 (stereo not given) + CNCc1ccccc1-c1csc(C(C)Nc2nc(C)nc3cc(OC)c(OC)cc23)c1
2. COc1cc(Nc2ncc3c(n2)-c2ccc(Cl)cc2C(c2c(F)cccc2OC)=NC3)ccc1C(=O)O + C=CC(=O)N1CCN(c2nc(=O)n(-c3c(C)ccnc3C(C)C)c3nc(-c4c(O)cccc4F)c(F)cc23)C(C)C1
3. CC(C)NCC(C(=O)N1CCN(c2ncnc3c2C(C)CC3O)CC1)c1ccc(Cl)cc1 (stereo not given) + CC1OCC2(CCN(c3cnc(Sc4ccnc(N)c4Cl)c(N)n3)CC2)C1N

[0.4, 79.5, 46.3]

###

# Tested on: CN0375-F725-PDC KRAS spheroid viability
# Assay protocol: Anticancer human tumor CN0375-F725-PDC cell line growth inhibition [KRAS2];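 further: spheroids exposed to agents for 7 days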
# Condition label: second compound 3.16 µM; first compound 0.01 µM; stronger effect = lower value; spheroids with HUVEC and MSC
Parameter measured: viability, T/C (%)
Numbers only, in %.

Below, 2 compounds whose answers are already recorded.
{"Compound": "Cn1ncnc1[C@H]1c2n[nH]c(=O)c3cc(F)cc(c23)N[C@@H]1c1ccc(F)cc1 + C=CC(=O)N1CCN(c2nc(OCC3CCCN3C)nc3c2CCN(c2cccc4cccc(C)c24)C3)CC1CC#N", "viability, T/C [%]": 16.1}
{"Compound": "CC(C)n1nc(-c2ccc3oc(N)nc3c2)c2c(N)ncnc21 + CNCc1ccccc1-c1csc(C(C)Nc2nc(C)nc3cc(OC)c(OC)cc23)c1", "viability, T/C [%]": 0.28}

Could you now consider this next compound?
GET /values?readout=viability, T/C&system=CN0375-F725-PDC KRAS spheroid viability&item= CC(=O)Nc1cccc(-n2c(=O)n(C3CC3)c(=O)c3c(Nc4ccc(I)cc4F)n(C)c(=O)c(C)c32)c1 + COc1cc2nc(C)nc(NC(C)c3cc(N)cc(C(F)(F)F)c3)c2cc1OC1CCOC1
33.5

###

# Tested on: CN0375-F725-PDC KRAS spheroid viability
# Assay protocol: Anticancer human tumor CN0375-F725-PDC cell line growth inhibition [KRAS2];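 further: spheroids exposed to agents for 7 days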
# Condition label: second compound 3.16 µM; first compound 0.01 µM; stronger effect = lower value; spheroids with HUVEC and MSC
Parameter measured: viability, T/C (%)
Numbers only, in %.

Below, 4 compounds whose answers are already recorded.
{"Compound": "CCN1CCN(Cc2ccc(Nc3ncc(F)c(-c4cc(F)c5nc(C)n(C(C)C)c5c4)n3)nc2)CC1 + COc1cc2nc(C)nc(NC(C)c3cc(N)cc(C(F)(F)F)c3)c2cc1OC1CCOC1", "viability, T/C [%]": 79.9}
{"Compound": "CCN1CCN(Cc2ccc(Nc3ncc(F)c(-c4cc(F)c5nc(C)n(C(C)C)c5c4)n3)nc2)CC1 + CC1OCC2(CCN(c3cnc(Sc4ccnc(N)c4Cl)c(N)n3)CC2)C1N", "viability, T/C [%]": 74.8}
{"Compound": "CC1COCCN1c1cc(-c2ccnn2C)c2ccnc(-c3ccn[nH]3)c2n1 (stereo not given) + CNCc1ccccc1-c1csc(C(C)Nc2nc(C)nc3cc(OC)c(OC)cc23)c1", "viability, T/C [%]": 0.32}
{"Compound": "CN(C)C/C=C/C(=O)Nc1cc2c(Nc3ccc(F)c(Cl)c3)ncnc2cc1O[C@H]1CCOC1 + C=CC(=O)N1CCN(c2nc(=O)n(-c3c(C)ccnc3C(C)C)c3nc(-c4c(O)cccc4F)c(F)cc23)C(C)C1", "viability, T/C [%]": 82.4}

Could you now consider this next compound?
Look at this compound and give its reported viability, T/C. CC(=O)OC12COC1CC(O)C1(C)C(=O)C(O)C3=C(C)C(OC(=O)C(O)C(NC(=O)OC(C)(C)C)c4ccccc4)CC(O)(C(OC(=O)c4ccccc4)C21)C3(C)C (stereo not given) + C=CC(=O)N1CCN(c2nc(OCC3CCCN3C)nc3c2CCN(c2cccc4cccc(C)c24)C3)CC1CC#N
96.2

###

# System: CN0375-F725-PDC KRAS spheroid viability
# Assay protocol: Anticancer human tumor CN0375-F725-PDC cell line growth inhibition [KRAS2];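 further: spheroids exposed to agents for 7 days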
# Condition label: second compound 0.1 µM; first compound 0.0001 µM; stronger effect = lower value; spheroids with HUVEC and MSC
Parameter measured: viability, T/C

{"Compound": "CC(=O)Nc1cccc(-n2c(=O)n(C3CC3)c(=O)c3c(Nc4ccc(I)cc4F)n(C)c(=O)c(C)c32)c1 + CC1OCC2(CCN(c3cnc(Sc4ccnc(N)c4Cl)c(N)n3)CC2)C1N", "Study target": "CN0375-F725-PDC KRAS spheroid viability", "viability, T/C": "90.5%"}
{"Compound": "CC(=O)Nc1cccc(-n2c(=O)n(C3CC3)c(=O)c3c(Nc4ccc(I)cc4F)n(C)c(=O)c(C)c32)c1 + C=CC(=O)N1CCN(c2nc(OCC3CCCN3C)nc3c2CCN(c2cccc4cccc(C)c24)C3)CC1CC#N", "Study target": "CN0375-F725-PDC KRAS spheroid viability", "viability, T/C": "92.3%"}
{"Compound": "CC(=O)Nc1cccc(-n2c(=O)n(C3CC3)c(=O)c3c(Nc4ccc(I)cc4F)n(C)c(=O)c(C)c32)c1 + C=CC(=O)N1CCN(c2nc(=O)n(-c3c(C)ccnc3C(C)C)c3nc(-c4c(O)cccc4F)c(F)cc23)C(C)C1", "Study target": "CN0375-F725-PDC KRAS spheroid viability", "viability, T/C": "94%"}
{"Compound": "CC(=O)Nc1cccc(-n2c(=O)n(C3CC3)c(=O)c3c(Nc4ccc(I)cc4F)n(C)c(=O)c(C)c32)c1 + CNCc1ccccc1-c1csc(C(C)Nc2nc(C)nc3cc(OC)c(OC)cc23)c1", "Study target": "CN0375-F725-PDC KRAS spheroid viability", "viability, T/C": "89.5%"}

Could you now consider this next compound?
Look at this compound and give its reported viability, T/C. CC(=O)Nc1cccc(-n2c(=O)n(C3CC3)c(=O)c3c(Nc4ccc(I)cc4F)n(C)c(=O)c(C)c32)c1 + COc1cc2nc(C)nc(NC(C)c3cc(N)cc(C(F)(F)F)c3)c2cc1OC1CCOC1
88.3%

###

Hi there, I'd appreciate the recorded pIC50 for every entry that follows.
# System: CN0375-F725-PDC KRAS spheroid viability
# Assay protocol: Anticancer human tumor CN0375-F725-PDC cell line growth inhibition [KRAS2];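 further: spheroids exposed to agents for 7 days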
# Condition label: curve of first compound; second compound 10 µM; spheroids with HUVEC and MSC
pIC50: −log10 of the molar value.

Below, 2 molecules whose answers are already recorded.
{"Molecule": "COC(=O)c1ccc2c(C(=Nc3ccc(N(C)C(=O)CN4CCN(C)CC4)cc3)c3ccccc3)c(O)[nH]c2c1 + CNCc1ccccc1-c1csc(C(C)Nc2nc(C)nc3cc(OC)c(OC)cc23)c1", "Study target": "CN0375-F725-PDC KRAS spheroid viability", "pIC50": "> 7.50"}
{"Molecule": "Cn1nccc1Nc1nccc(-c2cc3c(s2)C(C)(C)N(CCN2CCOCC2)C3=O)n1 + CC1OCC2(CCN(c3cnc(Sc4ccnc(N)c4Cl)c(N)n3)CC2)C1N", "Study target": "CN0375-F725-PDC KRAS spheroid viability", "pIC50": 6.68}

Could you now consider this next molecule?
GET /values?readout=pIC50&system=CN0375-F725-PDC KRAS spheroid viability&item= Cn1ncnc1[C@H]1c2n[nH]c(=O)c3cc(F)cc(c23)N[C@@H]1c1ccc(F)cc1 + CNCc1ccccc1-c1csc(C(C)Nc2nc(C)nc3cc(OC)c(OC)cc23)c1
> 9.50

###

# Test system: CN0375-F725-PDC KRAS spheroid viability
# Assay protocol: Anticancer human tumor CN0375-F725-PDC cell line growth inhibition [KRAS2];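 further: spheroids exposed to agents for 7 days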
# Condition label: second compound 0.316 µM; first compound 0.00316 µM; stronger effect = lower value; spheroids with HUVEC and MSC
Hi there, I'd appreciate the recorded viability, T/C for every entry that follows.
One number for each entry, in %.

{"Compound": "CCN1CCN(Cc2ccc(Nc3ncc(F)c(-c4cc(F)c5nc(C)n(C(C)C)c5c4)n3)nc2)CC1 + C=CC(=O)N1CCN(c2nc(=O)n(-c3c(C)ccnc3C(C)C)c3nc(-c4c(O)cccc4F)c(F)cc23)C(C)C1", "viability, T/C (%)": 106}
{"Compound": "Cn1ncnc1[C@H]1c2n[nH]c(=O)c3cc(F)cc(c23)N[C@@H]1c1ccc(F)cc1 + COc1cc2nc(C)nc(NC(C)c3cc(N)cc(C(F)(F)F)c3)c2cc1OC1CCOC1", "viability, T/C (%)": 94.2}

Look at this compound and give its reported viability, T/C. CCN1CCN(Cc2ccc(Nc3ncc(F)c(-c4cc(F)c5nc(C)n(C(C)C)c5c4)n3)nc2)CC1 + CC1OCC2(CCN(c3cnc(Sc4ccnc(N)c4Cl)c(N)n3)CC2)C1N
84.9

Data origin, for the record: PubChem BioAssay AID1963860
